Sourced from the domain aggregation screens of Martell et al. (2025)

Assay protocol: soluble fraction after stress (log2 fold change); higher = more stays soluble; pooled small domains, quantitative proteomics
Recorded conditions: stress: 50 degC
Property label: soluble fraction (log2)
Keep the answer to the number alone.

Residue sequence: HMNADAIVGRTGVVTEAIAADGFGRVQIDGDSWKAKASGNNGIDVGAKVRVLRIDSIILTVEK
soluble fraction (log2): 0.0422

Residue sequence: HMRRKNQVQSSYQKRENGTYTVRFFLSDDMGSIMDLQLMATREDMARALRERFLKDPEKIYGQIMQMLLR
soluble fraction (log2): -0.255

Residue sequence: HMSRVTVDVNPDVLQWAIDKKGKGDIKNKFPKIDEWLNGISKPTIHQLENFAKYVSVPFGYLLLSKPPVE
soluble fraction (log2): 0.276

Residue sequence: HMDTFSVAIGTKTPDGSSVGEVKTISRDELLLLEDEVAEDPTKEIIFTGGTKDSAQAALDGWIDYNTNLAS
soluble fraction (log2): 0.00318

Residue sequence: HMELPPLQPGQPIDGRVEQQIRAGYYVVSVRGRGYEFQLPESARPGDLLRMVYLNDHPRLTFALLRIDNAN
soluble fraction (log2): -0.98

Task item: If you can, please state the reported soluble fraction (log2) value of HMDRSQRDQEQAQLIRLVQQAFDDSGQRYGAEKIRITLAEGGIRVSTKRIAAIMQELDLRSI .
Reply: -1.36

Task item: Here is the next sequence: HMKGTVKFFNESKGFGFITEEGTNKEHFVHVSGLVDEIRENDEVEFDLQDGRKGLNAVNVRV
Reply: 0.231

Task item: Repeat for the following sequence: HMTLGQHIQALRKEAGYSQEALGEALGVTRQSISKWESDQAIPEVDKLVTLSRLFQVPVGVLLQVEQP
Reply: -0.16

Task item: Also check HMRTMRHLSVPRQETQQILSQLKAEFALPQGARVQPDPSDSKRTLIPVKEGAESELLSRYPVVHAEP
Reply: 0.0847

Task item: Next sequence up: HMDSDMGQQLKTLLTVGTFMSSKELKAIAQQLGLKKPTDLKEWVELESGTQRIEGKPTKGYWIKMNDINN
Reply: 0.159

Task item: HMGYINLNVKVSPEWRDFWRSAYASVVAGYHQNKEHWNTIILDGSIPDKDIKRMIAESYDLVSD , same question.
Reply: -0.797

----------
Assay protocol: soluble fraction after stress (log2 fold change); higher = more stays soluble; pooled small domains, quantitative proteomics
Recorded conditions: stress: 50 degC
Property label: soluble fraction (log2)
A bare number is all that is needed in reply.

Residue sequence: HMSAETRSWTDAQGNQTQAVLRGFDGGDVLLQNAAGKTLRVPVKNLSEDDQRYVVLNISTLID
Recorded measurement: 0.0786

Task item: Which value of soluble fraction (log2) has been reported for HMEPDEQAVKALIAEIDKLSKEKLTLKHEKKLKELREIYDDFTEEEKKLVTNYDILVKMEKRMEVLKKQEG in the records?
Reply: 0.111

Task item: Another sequence to look at: HMGAAIEYGDRGNTVLQAQRLLIARGYMAGSADGIYGRQMEQAVKRFQKEQGLPESGVVDRRTLQVLIRSR
Reply: -0.626

Task item: Another: HMRGFGYVRRLPSKRYQASYAGPDLQRHVAPTTFTTKADAESWLGAERKVVESGSWRPPAVREAEARLS
Reply: 0.357

----------
# soluble fraction (log2) per record follows
Assay protocol: soluble fraction after stress (log2 fold change); higher = more stays soluble; pooled small domains, quantitative proteomics
Recorded conditions: stress: 50 degC
Lab note: write the figure by itself, no unit.

# count of solved cases: 2
Residue sequence: HMSATQDAAIAVRIRDILSELDGYEDVTVTVTSGIVTMRGTTLDSEKIARLNDLTGRVEGVVAIENSVTET
soluble fraction (log2): -0.367
--
Residue sequence: HMSQTVKYVNTTSGLNMRTGPATSYAKITTIAYGQSVNVLSTSNGWSKINYSGSTGYVSSQYLQSKKPS
soluble fraction (log2): -0.942

Task item: Please look up its soluble fraction (log2): HMTPGPYETLKPAPLGSYIEPKIGFATAIEIARKEAVQLGIKTEAGGIWYGGDFPFYNVSFFDPDD
Reply: -0.615

Task item: Also need HMADKNIIGVLSAADNLGKVRITTANGEKYIITVPDGLSDIVKTYWEEEVSVKYVIEKRRKILVDIDG , thanks.
Reply: -1.67

Task item: And for HMKNLTERQQQIIALISGNPLITRAEIASAIGFSVKTIERELSILSEIVSYVGSKKGGHWEIQT ?
Reply: -1.15

Task item: Param item: HMLDEIAGQKVRVLEEINNSEGTGKVMYRGVEWMARSVDDAVMAKDSIVTVQSISGVKLMVT
Reply: -0.0685

Task item: Entry HMEEYTVEFVKHKVKRKQTLYTISKLYNVSIDDIIKYNSQIEGFNLSRRMELNIPVKKTLIVKNE please
Reply: -1.7

Task item: How about HMATPAFEMYKVRRGDTPAGLAKEWGFPDMASFYRINPDARSDWKRGLQLVKPMNEMAVLQATA ?
Reply: -0.255
